Sourced from PubChem BioAssay (NCI)

Test system: DMS 114 small cell lung
assay.name: NCI tumour cell line growth inhibition, 48 h
Kindly state TGI for each of the entries shown.
Report only the number, with the unit µM understood.

State its TGI: [O-]c1c(-c2ccccc2)[se]c(-c2ccccc2)[n+]1-c1ccccc1
18.7

Given the compound C=C(/C=C/C=C(/CCC=C(C)C)COC(C)=O)[C@@H]1CC[C@]2([C@H](CCCO)/C(=C(/C)C=O)CC[C@]2(C)O)[C@@H]1O , write its reported TGI.
28.8

Return reported TGI. Input compound: CCCCCCCCCCSS(=O)(=O)c1ccc(C)cc1
30.4

Indicate its recorded TGI; the compound in question is CSc1ccc2c(cc1=O)C(NC(=O)c1cc(O)c(OC(=O)O)c(O)c1)CCc1cc(O)c(O)c(O)c1-2 (stereo not given)
36
